- STUDY TARGET: Drosophila TyrR (Drosophila melanogaster, UniProt P22270, C261Y)
- Construct: The open reading frame contained in this PCR product encodes a protein of 601 amino acids
- Sequence (P22270 27-601 C261Y): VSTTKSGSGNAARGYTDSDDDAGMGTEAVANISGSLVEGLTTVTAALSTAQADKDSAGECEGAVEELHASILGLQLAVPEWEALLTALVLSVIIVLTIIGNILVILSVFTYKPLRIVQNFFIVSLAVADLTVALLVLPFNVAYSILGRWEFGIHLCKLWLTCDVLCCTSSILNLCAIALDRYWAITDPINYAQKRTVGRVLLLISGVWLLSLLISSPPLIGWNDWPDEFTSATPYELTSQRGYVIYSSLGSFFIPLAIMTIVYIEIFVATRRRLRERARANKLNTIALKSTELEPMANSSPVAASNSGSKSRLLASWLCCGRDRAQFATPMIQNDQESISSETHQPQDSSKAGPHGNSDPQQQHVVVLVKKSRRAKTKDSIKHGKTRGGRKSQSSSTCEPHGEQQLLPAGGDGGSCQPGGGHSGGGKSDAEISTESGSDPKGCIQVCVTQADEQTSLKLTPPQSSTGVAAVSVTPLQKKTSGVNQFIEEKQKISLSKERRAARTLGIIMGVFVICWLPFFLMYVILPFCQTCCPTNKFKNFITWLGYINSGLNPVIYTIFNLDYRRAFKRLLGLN
- EXPERIMENTAL DETAILS: 3H-tyramine saturation binding to membranes of S2 cells expressing TyrR
- APPLIED CONDITIONS: 0.1 to 30 nM 3H-tyramine; 10 μM unlabeled tyramine for nonspecific binding; read-out: Kd for specific binding
ASSAY ENDPOINT: Kd (nM)
Reply with just the number (in nM).

Query: Recorded Kd for `NCCc1ccc(O)cc1` , please?
Response: 2.56

Value source: patent US11896007B2
